assay: Continuous infusion study pharmacokinetics (plasma); format: in vivo, human; conditions: human, plasma, intravenous, 12 mg/h, Rate 12 mg/h; CL=Rate/Css; individual subjects; read-out: CL (converted)
Test readout: clearance (mL/min)
Give just the number in mL/min; leave the unit off.

I am curious: what clearance value has been reported for CC(C)[C@H]1C(=O)N[C@@H](CCCN=C(N)N)C(=O)NCC(=O)N[C@@H](CC(=O)O)C(=O)N[C@H](Cc2ccccc2)C(=O)N1C [Cilengitide, cyclo-(Arg-Gly-Asp-DPhe-NMeVal)] ?
102

---

assay: Continuous infusion study pharmacokinetics (plasma); type: in vivo, human; details: human, plasma, iv, 4 mg/h, Rate 4 mg/h; 2 h; Mean; read-out: EMD 121974 Concentrations, Mean
Test readout: level at 2 h
A complete answer gives the number followed by the unit.

I am curious: what level at 2 h value has been reported for CC(C)[C@H]1C(=O)N[C@@H](CCCN=C(N)N)C(=O)NCC(=O)N[C@@H](CC(=O)O)C(=O)N[C@H](Cc2ccccc2)C(=O)N1C [Cilengitide, cyclo-(Arg-Gly-Asp-DPhe-NMeVal)] ?
328 ng/mL

---

assay: Continuous infusion study pharmacokinetics (plasma); assay type: in vivo, human; settings: human, plasma, iv, 1 mg/h, Rate 1 mg/h; 506 h; Mean; read-out: EMD 121974 Concentrations, Mean
Test readout: level at 506 h (ng/mL)
Give just the number in ng/mL; leave the unit off.

I am curious: what level at 506 h value has been reported for CC(C)[C@H]1C(=O)N[C@@H](CCCN=C(N)N)C(=O)NCC(=O)N[C@@H](CC(=O)O)C(=O)N[C@H](Cc2ccccc2)C(=O)N1C [Cilengitide, cyclo-(Arg-Gly-Asp-DPhe-NMeVal)] ?
109

---

assay: Continuous infusion study pharmacokinetics (plasma); format: in vivo, human; conditions: human, plasma, iv, 1 mg/h, Rate 1 mg/h; 504 h; Mean; read-out: EMD 121974 Concentrations, Mean
Test readout: level at 504 h (ng/mL)
Give just the number in ng/mL; leave the unit off.

I am curious: what level at 504 h value has been reported for CC(C)[C@H]1C(=O)N[C@@H](CCCN=C(N)N)C(=O)NCC(=O)N[C@@H](CC(=O)O)C(=O)N[C@H](Cc2ccccc2)C(=O)N1C [Cilengitide, cyclo-(Arg-Gly-Asp-DPhe-NMeVal)] ?
62.1

---

assay: Continuous infusion study pharmacokinetics (plasma); assay type: in vivo, human; settings: human, plasma, iv, 12 mg/h, Rate 12 mg/h; 168 h; Mean; read-out: EMD 121974 Concentrations, Mean
Test readout: level at 168 h (ng/mL)
Give just the number in ng/mL; leave the unit off.

I am curious: what level at 168 h value has been reported for CC(C)[C@H]1C(=O)N[C@@H](CCCN=C(N)N)C(=O)NCC(=O)N[C@@H](CC(=O)O)C(=O)N[C@H](Cc2ccccc2)C(=O)N1C [Cilengitide, cyclo-(Arg-Gly-Asp-DPhe-NMeVal)] ?
1770

---

test: Continuous infusion study pharmacokinetics (plasma); assay type: in vivo, human; details: human, plasma, intravenous, 4 mg/h, Rate 4 mg/h; CL=Rate/Css; individual subjects; read-out: CL (converted)
Test readout: clearance (mL/min)
Give just the number in mL/min; leave the unit off.

I am curious: what clearance value has been reported for CC(C)[C@H]1C(=O)N[C@@H](CCCN=C(N)N)C(=O)NCC(=O)N[C@@H](CC(=O)O)C(=O)N[C@H](Cc2ccccc2)C(=O)N1C [Cilengitide, cyclo-(Arg-Gly-Asp-DPhe-NMeVal)] ?
107
